Item-by-item account of pIC50
biological target: PI3Kγ (p110γ) Recombinant Human Protein (Homo sapiens (Human), UniProt P48736); experiment: PI3K-γ Scintillation Proximity Assay; assay type: biochemical; details: read-out: PI3Kγ IC50
Sequence (P48736 whole entry): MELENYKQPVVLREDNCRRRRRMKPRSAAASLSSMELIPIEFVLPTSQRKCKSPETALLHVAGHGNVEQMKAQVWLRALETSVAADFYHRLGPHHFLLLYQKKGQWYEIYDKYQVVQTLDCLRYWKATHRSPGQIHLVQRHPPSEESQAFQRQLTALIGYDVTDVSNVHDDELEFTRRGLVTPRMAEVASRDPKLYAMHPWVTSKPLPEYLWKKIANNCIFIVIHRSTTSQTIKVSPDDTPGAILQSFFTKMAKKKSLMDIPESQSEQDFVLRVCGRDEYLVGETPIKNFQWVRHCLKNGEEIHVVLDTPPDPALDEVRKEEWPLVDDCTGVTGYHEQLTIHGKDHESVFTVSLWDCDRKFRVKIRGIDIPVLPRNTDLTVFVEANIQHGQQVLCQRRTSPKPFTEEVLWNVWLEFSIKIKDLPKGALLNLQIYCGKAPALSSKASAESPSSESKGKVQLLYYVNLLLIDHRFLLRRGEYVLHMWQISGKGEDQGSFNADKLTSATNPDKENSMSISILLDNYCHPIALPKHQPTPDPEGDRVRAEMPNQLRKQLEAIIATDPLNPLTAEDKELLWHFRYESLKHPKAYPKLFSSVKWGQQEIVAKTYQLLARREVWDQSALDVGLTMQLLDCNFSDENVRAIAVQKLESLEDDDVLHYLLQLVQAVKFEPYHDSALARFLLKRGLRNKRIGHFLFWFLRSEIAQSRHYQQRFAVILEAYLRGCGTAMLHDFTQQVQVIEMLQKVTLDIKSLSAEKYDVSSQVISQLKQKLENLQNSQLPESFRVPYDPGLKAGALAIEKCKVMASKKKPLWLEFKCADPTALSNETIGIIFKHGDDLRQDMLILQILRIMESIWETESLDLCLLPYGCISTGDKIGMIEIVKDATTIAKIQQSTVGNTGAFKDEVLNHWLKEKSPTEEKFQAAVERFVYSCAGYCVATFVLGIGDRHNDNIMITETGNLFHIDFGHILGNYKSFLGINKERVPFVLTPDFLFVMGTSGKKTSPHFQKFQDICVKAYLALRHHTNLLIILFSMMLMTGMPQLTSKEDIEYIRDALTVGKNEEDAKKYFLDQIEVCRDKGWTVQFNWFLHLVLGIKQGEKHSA
pIC50: −log10 of the molar value. Counter-ions that a name gives are not always drawn.

[
  {
    "compound": "Cc1cn2c(-c3cc(S(=O)(=O)NC45CCC(C#N)(C4)C5)ccc3C)cnc2c(N)n1 [Example 263, trifluoroacetate salt]",
    "pIC50": "> 7.00"
  },
  {
    "compound": "Cc1ccc(S(C)(=O)=O)cc1-c1cnc2c(N)nc(-c3ccc(N)nc3)cn12 [Example 482, trifluoroacetate]",
    "pIC50": "> 7.00"
  },
  {
    "compound": "Cc1ccc(S(C)(=O)=O)cc1-c1cnc2c(N)nc(-c3cccc(OCC#N)c3)cn12 [Example 486, trifluoroacetate]",
    "pIC50": "> 7.00"
  },
  {
    "compound": "Nc1nccn2c(-c3cc(S(=O)(=O)N[C@H]4CC[C@H](O)CC4)ccc3F)cnc12",
    "pIC50": "> 7.00"
  },
  {
    "compound": "Cc1ccc(S(=O)(=O)N[C@H]2C[C@@H](CO)C2)cc1-c1cnc2c(N)ncnn12",
    "pIC50": "> 7.00"
  },
  {
    "compound": "Cc1ccc(S(C)(=O)=O)cc1-c1cnc2c(N)nc(C(=O)Nc3ccc(N4CCN(C)CC4)cn3)cn12 [Example 455, trifluoroacetate salt]",
    "pIC50": "5.70 to 6.30"
  },
  {
    "compound": "Cc1ccc(S(=O)(=O)NC(C)(C)CN2CCCC2)cc1-c1cnc2c(N)ncnn12",
    "pIC50": "5.70 to 6.30"
  }
]
